Origin of values: ChEMBL document CHEMBL2029348

Molecular target: Aurora kinase A (Homo sapiens)
Sequence (O14965 whole entry): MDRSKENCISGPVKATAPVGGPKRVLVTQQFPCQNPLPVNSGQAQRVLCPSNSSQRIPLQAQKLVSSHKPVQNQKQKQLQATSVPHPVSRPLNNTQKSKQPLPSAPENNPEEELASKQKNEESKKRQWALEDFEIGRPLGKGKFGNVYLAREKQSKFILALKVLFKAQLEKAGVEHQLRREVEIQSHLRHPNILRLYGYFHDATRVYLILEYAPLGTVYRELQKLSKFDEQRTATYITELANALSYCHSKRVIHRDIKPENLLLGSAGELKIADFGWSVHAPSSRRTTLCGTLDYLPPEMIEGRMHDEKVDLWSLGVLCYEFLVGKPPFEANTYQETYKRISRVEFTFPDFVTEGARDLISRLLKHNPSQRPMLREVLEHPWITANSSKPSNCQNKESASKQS
Test: Inhibition of human recombinant Aurora A kinase using biotinylated peptide substrate preincubated for 15 mins with compound measured after 30 mins by fluorescence analysis
recorded_endpoint: pIC50
Would you please state pIC50, meaning minus log10 of the concentration in mol/L, as a bare number?

Use the examples below as a reference point.
COc1ccc(NC(=O)c2cn(-c3ccccc3)nc2-c2ccc(C)cc2)cc1 :: 5.84
COc1ccc(-c2nn(-c3ccccc3)cc2C(=O)Nc2ccc(Cl)cc2)cc1 :: 5.25
Cc1ccc(-c2nn(-c3ccccc3)cc2C(=O)Nc2ccccc2)cc1 :: 5.58
Cc1ccc(-c2nn(-c3ccccc3)cc2C(=O)Nc2ccc(Br)cc2)cc1 :: 5.14
COc1ccc(-c2nn(-c3ccccc3)cc2C(=O)Nc2ccccc2)cc1 :: 5.56

query: Which pIC50 is reported with Aurora kinase A (Homo sapiens) for this entry: `O=C(Nc1ccc(Br)cc1)c1cn(-c2ccccc2)nc1-c1ccccc1` ?
result: 5.14
